system-name: Human CD137 ECD (human)
Sequence (chain, as listed by the source limits assumed): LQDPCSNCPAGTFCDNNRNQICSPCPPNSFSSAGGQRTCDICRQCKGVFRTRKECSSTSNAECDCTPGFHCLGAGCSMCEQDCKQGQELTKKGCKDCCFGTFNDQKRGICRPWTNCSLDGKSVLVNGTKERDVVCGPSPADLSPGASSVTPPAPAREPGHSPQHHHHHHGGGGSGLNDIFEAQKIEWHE
assay-explanation: single mutant vs template dBBDu183H
assay-readout: fold change of affinity (fold)

{"binder": "H183/L072 VH Y55T (antibody, name in Kabat numbering, V domains shown) VH: QVQLVESGGGLVQPGRSLRLSCAASGFTFSNAWMHWVRQAPGKGLEWVAQIKDKGNATAAYYAPSVKGRFTISRDDSKNSIYLQMNSLKTEDTAVYYCHYVHYASASTVLPAFGVDAWGQGTTVTVSS VL: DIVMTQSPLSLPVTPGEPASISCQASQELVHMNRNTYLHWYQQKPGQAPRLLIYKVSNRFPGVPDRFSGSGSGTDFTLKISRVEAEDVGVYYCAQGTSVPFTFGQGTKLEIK", "display-unit": "fold", "numeric-result": 0}
{"binder": "H183/L072 VH G26V (antibody, name in Kabat numbering, V domains shown) VH: QVQLVESGGGLVQPGRSLRLSCAASVFTFSNAWMHWVRQAPGKGLEWVAQIKDKGNAYAAYYAPSVKGRFTISRDDSKNSIYLQMNSLKTEDTAVYYCHYVHYASASTVLPAFGVDAWGQGTTVTVSS VL: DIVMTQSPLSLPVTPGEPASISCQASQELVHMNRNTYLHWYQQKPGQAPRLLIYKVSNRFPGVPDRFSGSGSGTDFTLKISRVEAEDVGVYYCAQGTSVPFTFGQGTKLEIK", "display-unit": "fold", "numeric-result": 0}
{"binder": "H183/L072 VH H35D (antibody, name in Kabat numbering, V domains shown) VH: QVQLVESGGGLVQPGRSLRLSCAASGFTFSNAWMDWVRQAPGKGLEWVAQIKDKGNAYAAYYAPSVKGRFTISRDDSKNSIYLQMNSLKTEDTAVYYCHYVHYASASTVLPAFGVDAWGQGTTVTVSS VL: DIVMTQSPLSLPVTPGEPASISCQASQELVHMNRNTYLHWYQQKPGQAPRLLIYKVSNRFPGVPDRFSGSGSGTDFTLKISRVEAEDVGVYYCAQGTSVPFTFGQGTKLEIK", "display-unit": "fold", "numeric-result": 0}
